TESTED_ON: T1, HLA-A*03:01 (human)
T1 construct: also called peptide-receptive MHC molecules
ASSAY_PROTOCOL: UV-exchange b2m ELISA; exchange-yield grade
MEASURED_ATTRIBUTE: peptide exchange yield

# BINDER, MEASURED_ATTRIBUTE, RESULT
records = [
    ("TVAPPQGVVK", "peptide exchange yield", "20 to 50%"),
    ("RAKELEATF", "peptide exchange yield", "10 to 20%"),
    ("NLSSITHER", "peptide exchange yield", "20 to 50%"),
    ("AIKVIPTVFK", "peptide exchange yield", "20 to 50%"),
]
